assay: Metabolic stability in rat liver microsomes; format: in vitro ADME

[
  {
    "SMILES ENTRY": "O=C(Nc1ccc(F)cc1)c1ccc(SCc2cc(OC(F)(F)F)ccc2B(O)O)nc1",
    "remaining at 1 h, 1 μM": "> 90%"
  }
]

* * *

Catalogue of fold drop in activity relative to compound 5 values
test system: GROα-mediated intracellular calcium release in isolated human PMNs; assay: Inhibition of GROα-mediated intracellular calcium release in isolated human PMNs; format: cell-based; conditions: PMN calcium release assay
MEASUREMENT NAME: fold drop in activity relative to compound 5 (fold)

[
  {
    "COMPOUND": "O=C(Nc1ccc(F)cc1)c1ccc(SCCCCB(O)O)nc1 [Compound 10]",
    "TEST SYSTEM": "GROα-mediated intracellular calcium release in isolated human PMNs",
    "MEASURE UNIT": "fold",
    "ENDPOINT RESULT": 18
  },
  {
    "COMPOUND": "O=C(Nc1ccc(F)cc1)c1ccc(SCCc2ccccc2B(O)O)nc1 [Compound 11]",
    "TEST SYSTEM": "GROα-mediated intracellular calcium release in isolated human PMNs",
    "MEASURE UNIT": "fold",
    "ENDPOINT RESULT": 10
  },
  {
    "COMPOUND": "O=C(Nc1ccc(F)cc1)c1ccc(SCc2cccc(B(O)O)c2)nc1 [Compound 8]",
    "TEST SYSTEM": "GROα-mediated intracellular calcium release in isolated human PMNs",
    "MEASURE UNIT": "fold",
    "ENDPOINT RESULT": 30
  },
  {
    "COMPOUND": "COc1ccc(B(O)O)c(CSc2ccc(C(=O)Nc3ccc(F)cc3)cn2)c1 [Compound 14]",
    "TEST SYSTEM": "GROα-mediated intracellular calcium release in isolated human PMNs",
    "MEASURE UNIT": "fold",
    "ENDPOINT RESULT": 2
  }
]

* * *

test: Metabolic stability in monkey liver microsomes; assay type: in vitro ADME; settings: Microsome stability (% remaining @ 60 min) monkey, 37°C, LC-MS

[
  {
    "COMPOUND": "O=C(Nc1ccc(F)cc1)c1ccc(SCc2cc(OC(F)(F)F)ccc2B(O)O)nc1 [Compound 6]",
    "remaining at 1 h, 1 μM": "> 90%"
  }
]
